The reader will find reported IC50 values listed item by item below.
Biological target: UniProtKB P00523
Experiment: Kinase Assay
Procedure: Selected compounds were screened against a panel of mammalian kinases. Compounds were supplied in DMSO and screened in duplicates at 100 uM concentration using a radioactive (33P-ATP) filter-binding-assay.
Write the number in µM without appending the unit.

>>> obs_value("CC1CN(c2nc3ccccn3c(=O)c2N)CC(C)O1 (configuration not stated)")
97

Problem: For UniProtKB P00523, provide IC50 of Nc1nc2cnc(-c3ccccc3)cn2n1 please.
Result: 20

###

Biological target: MAP kinase-activated protein kinase 3 (Homo sapiens, UniProt Q16644)
Sequence (Q16644 whole entry): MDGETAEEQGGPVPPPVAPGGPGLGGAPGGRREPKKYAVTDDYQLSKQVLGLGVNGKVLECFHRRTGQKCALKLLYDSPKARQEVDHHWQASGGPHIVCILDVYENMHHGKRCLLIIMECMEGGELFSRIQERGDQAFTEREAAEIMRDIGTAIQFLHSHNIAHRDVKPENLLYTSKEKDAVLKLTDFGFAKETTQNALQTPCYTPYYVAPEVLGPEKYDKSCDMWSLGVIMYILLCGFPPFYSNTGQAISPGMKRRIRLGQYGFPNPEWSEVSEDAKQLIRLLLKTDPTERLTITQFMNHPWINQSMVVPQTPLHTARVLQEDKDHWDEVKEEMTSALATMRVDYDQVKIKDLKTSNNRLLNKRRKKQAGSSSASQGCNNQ
Assay: Kinase Assay
readout_name: pIC50
Scale for pIC50: -log10 of concentration given in mol/L; no unit attached.

Problem: Give the reported pIC50 for CC1CN(c2nc3ccccn3c(=O)c2N)CC(C)O1 (stereo unspecified) (system: MAP kinase-activated protein kinase 3 (Homo sapiens, UniProt Q16644)).
Result: 4.68
